All figures here come from ChEMBL document CHEMBL5126517.

assayed target: UniProt O35492
Sequence (O35492 whole entry, the tested form may be a part): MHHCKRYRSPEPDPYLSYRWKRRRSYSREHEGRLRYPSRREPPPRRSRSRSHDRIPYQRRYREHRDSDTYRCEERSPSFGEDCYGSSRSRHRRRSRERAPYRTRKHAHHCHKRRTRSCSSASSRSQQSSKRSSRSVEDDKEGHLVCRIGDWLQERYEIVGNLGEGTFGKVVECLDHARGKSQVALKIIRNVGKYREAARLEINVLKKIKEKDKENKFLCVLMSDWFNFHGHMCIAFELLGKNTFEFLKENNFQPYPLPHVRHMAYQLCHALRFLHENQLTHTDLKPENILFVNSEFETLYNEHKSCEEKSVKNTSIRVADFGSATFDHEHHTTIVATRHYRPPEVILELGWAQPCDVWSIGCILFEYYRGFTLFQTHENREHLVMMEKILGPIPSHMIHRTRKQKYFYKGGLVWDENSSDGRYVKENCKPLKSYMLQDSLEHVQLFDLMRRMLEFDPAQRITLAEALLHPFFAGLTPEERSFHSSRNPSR
protocol: Inhibition of GST-fused mouse recombinant CLK3 expressed in Escherichia coli using GRSRSRSRSRSR peptide as substrate incubated for 30 mins in presence of ATP by scintillation counting method
pIC50: −log10 of the molar value.
Known pIC50 of a selection of compounds
parameter: pIC50

compound | parameter | value operator | reading
CCCSC1=N/C(=C\c2ccc3c(c2)OCO3)C(=O)N1C | pIC50 | < | 5.00
O=C1NC(Nc2ccccc2)=NC1Cc1ccc2c(c1)OCO2 (stereo not drawn) | pIC50 | < | 5.00
CCCNC1=N/C(=C\c2ccc3c(c2)OCO3)C(=O)N1CCC | pIC50 | < | 5.00
O=C1N=C(Nc2ccccc2)S/C1=C\c1ccc2c(c1)OCO2 | pIC50 | = | 6.37
CCCCCOc1ccc(NC2=N/C(=C\c3ccc4c(c3)OCO4)C(=O)N2)cc1 | pIC50 | < | 5.00
O=C1NC(Nc2ccccc2)=N/C1=C\c1ccc(F)cc1 | pIC50 | < | 5.00
CCNC1=N/C(=C\c2ccc3c(c2)OCO3)C(=O)N1 | pIC50 | = | 5.64
O=C1NC(Nc2ccc(N3CCNCC3)cc2)=N/C1=C\c1ccc2c(c1)OC=CO2 | pIC50 | < | 5.00
CCSC1=N/C(=C\c2ccc3c(c2)OCO3)C(=O)N1 | pIC50 | = | 5.85
Cc1ccc(NC2=N/C(=C\c3ccc4c(c3)OCO4)C(=O)N2)cc1C | pIC50 | < | 5.00
O=C1NC(Nc2ccc(N3CCNCC3)cc2)=N/C1=C\c1ccc2c(c1)OCO2 | pIC50 | = | 5.05
Cc1ccc(NC2=N/C(=C\c3ccc4c(c3)OCO4)C(=O)N2)c(C)c1 | pIC50 | < | 5.00
COc1cc(/C=C2\N=C(Nc3ccc(N4CCNCC4)cc3)NC2=O)ccc1O | pIC50 | < | 5.00
O=C1NC(NC2CCNCC2)=N/C1=C\c1ccc2c(c1)OCO2 | pIC50 | = | 5.28
O=C1NC(Nc2cccc(F)c2)=N/C1=C\c1ccc2c(c1)OCO2 | pIC50 | = | 6.25
COc1cc(/C=C2\N=C(Nc3ccccc3)NC2=O)ccc1O | pIC50 | = | 6.21
Cc1ccc(C)c(NC2=N/C(=C\c3ccc4c(c3)OCO4)C(=O)N2)c1 | pIC50 | = | 5.46
CN1C(=O)/C(=C/c2ccc3c(c2)OCO3)N=C1N | pIC50 | = | 5.22
O=C1NC(N2CCOCC2)=N/C1=C\c1ccc2c(c1)OCO2 | pIC50 | = | 5.25
Cn1cc(Cc2ccc3c(c2)OCO3)nc1N | pIC50 | < | 5.00
O=C1NC(Nc2ccccn2)=N/C1=C\c1ccc2c(c1)OCO2 | pIC50 | = | 6.29
O=C1NC(N2CCCCC2)=N/C1=C\c1ccc2c(c1)OCO2 | pIC50 | = | 5.35
O=C1NC(N2CCN(c3ccc(F)cc3)CC2)=N/C1=C\c1ccc2c(c1)OCCO2 | pIC50 | < | 5.00
NC1=N/C(=C\c2ccc3c(c2)OCO3)C(=O)N1 | pIC50 | = | 6.02
CSC1=N/C(=C\c2ccc3c(c2)OCO3)C(=O)N1 | pIC50 | = | 5.62
O=C1NC(Nc2ccc(F)cc2)=N/C1=C\c1ccc2c(c1)OCO2 | pIC50 | < | 5.00
COc1ccc(NC2=N/C(=C\c3ccc4c(c3)OCO4)C(=O)N2)cc1 | pIC50 | < | 5.00
CCCNC1=N/C(=C\c2ccc3c(c2)OCO3)C(=O)N1c1ccccc1 | pIC50 | = | 5.02
O=C1NC(N2CCC(N3CCCCC3)CC2)=N/C1=C\c1ccc2c(c1)OCO2 | pIC50 | < | 5.00
CN1CCN(c2ccc(NC3=N/C(=C\C4=COc5ccccc5O4)C(=O)N3)cc2)CC1 | pIC50 | = | 5.96
CNC1=N/C(=C\c2ccc3c(c2)OCO3)C(=O)N1 | pIC50 | = | 5.92
CN(C1=N/C(=C\c2ccc3c(c2)OCO3)C(=O)N1)c1ccccc1 | pIC50 | = | 5.59
O=C1NC(Nc2ccccc2)=N/C1=C\c1ccc2c(c1)OCCO2 | pIC50 | = | 5.62
O=C1NC(Nc2ccccc2)=N/C1=C\c1ccc2c(c1)CCCO2 | pIC50 | ≤ | 5.00
CCCSC1=N/C(=C\c2ccc3c(c2)OCO3)C(=O)N1 | pIC50 | = | 5.51
[2H]C1([2H])Oc2ccc(/C=C3\N=C(Nc4ccccc4)NC3=O)cc2O1 | pIC50 | = | 6.30
O=C1NC(Nc2ccccc2)=N/C1=C\c1ccc(O)c(O)c1 | pIC50 | = | 5.64
C/C(=C1/N=C(Nc2ccccc2)NC1=O)c1ccc2c(c1)OCO2 | pIC50 | < | 5.00
